These data points were gathered from patent US10858305B2.

test system: MCF7, 231, T47D, BTB-12, ME16C, 468, HCT116 cells; assay: MTT cytotoxic IC50 aligned with MCT1 expression levels (FIG. 14); details: Homo sapiens, HCT-116, read-out: cytotoxic IC50
reported.property: IC50

q: Please look up its IC50: O=C(O)C(=O)CBr [3-BP, 3-bromopyruvate]
a: < 100 µM

---

biological target: GAPDH (Homo sapiens, UniProt P04406); assay: GAPDH activity assay after 30 minutes drug treatment of living cells; type: cell-based; parameters: endogenous in cells
Sequence (P04406 whole entry): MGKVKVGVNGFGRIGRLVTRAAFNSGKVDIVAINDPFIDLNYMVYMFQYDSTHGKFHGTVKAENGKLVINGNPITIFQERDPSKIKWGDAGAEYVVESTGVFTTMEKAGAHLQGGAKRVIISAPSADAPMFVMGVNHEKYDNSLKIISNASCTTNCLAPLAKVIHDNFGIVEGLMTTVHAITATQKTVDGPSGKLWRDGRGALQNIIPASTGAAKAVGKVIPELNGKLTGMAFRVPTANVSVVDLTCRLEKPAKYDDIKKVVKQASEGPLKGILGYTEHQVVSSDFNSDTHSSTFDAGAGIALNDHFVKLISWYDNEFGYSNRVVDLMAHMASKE
reported.property: IC50

q: Please look up its IC50: O=C(O)C(=O)CBr [3-BP, 3-bromopyruvate]
a: < 30 µM

---

system: HCT116 cells transfected with MCT-1 siRNA or scrambled control; experiment: MTT assay in HCT116 cells after siRNA knockdown of MCT-1; assay type: cell-based; conditions: Homo sapiens, HCT-116, HCT116, scrambled control siRNA; read-out: IC50 (MTT)
reported.property: pIC50
pIC50 here: minus log base 10 of the concentration, concentration in moles per litre.

q: Please look up its pIC50: C=C(C)[C@@H]1CC=C(COC(=O)C(=O)CBr)CC1 [NEO218]
a: 4.72

---

Test system: HCT116 colon cancer cells
Assay: LDH release assay in HCT116 cells
Type: cell-based
Details: Homo sapiens, HCT-116; HCT116, 16 hours; read-out: half-maximal effect, LDH assay
Procedure: (A) MTT assay was performed after 24 hours. […] (B) LDH assay was performed after […]. LDH release by untreated cells was set to 1. Relative fold increase is shown (n=3). The capacity for rapid cell killing by NEO218 relative to 3-BP, POH and 3-BP+POH was evaluated via LDH assay, where LDH release is used as a proxy for cell death. […] Depending on the cell line, 2000 to 4000 cells per well were seeded in a volume of 50 μL into a 96-well plate. […] The absorbance was measured at 490 and 680 nm. […]
pEC50: −log10 of the molar value.
reported.property: pEC50

q: Query pEC50 on HCT116 colon cancer cells for `C=C(C)[C@@H]1CC=C(COC(=O)C(=O)CBr)CC1`
a: ~5.10

q: Query pEC50 on HCT116 colon cancer cells for O=C(O)C(=O)CBr [3-BP, 3-bromopyruvate]
a: ~5.10

---

tested on: MDA-MB-231 breast cancer cells; assay: LDH release assay in MDA-MB-231 / breast cancer cell lines; assay type: cell-based, human; details: Homo sapiens; MDA-MB-231, 16 hours; read-out: effective concentration (half-maximal), LDH assay
pEC50: −log10 of the molar value.
reported.property: pEC50

q: Please look up its pEC50: O=C(O)C(=O)CBr [3-BP, 3-bromopyruvate]
a: ~3.46

---

Target: GAPDH (Homo sapiens)
Test: GAPDH activity assay after 30 minutes drug treatment of living cells
Assay type: cell-based
Set-up: endogenous in cells
Settings: HCT116 cells treated 30 minutes, then lysed; read-out: IC50 (GAPDH activity)
Method: (A) HCT116 cells were treated with 40 μM 3-BP or NEO218 in the presence or absence of 1 mM NAC, 1 mM GSH, or 50 mM methyl-pyruvate (or sodium pyruvate, which produced similar outcomes). Cell viability was determined 24 hours later by MTT assay. […] After 30 minutes, cell lysates were prepared and analyzed for GAPDH activity. […] Enzymatic activity of GAPDH in vitro was measured with the Colorimetric GAPDH Assay kit (ScienCell Research Laboratories, Carlsbad, Calif.). […]
pIC50: −log10 of the molar value.
reported.property: pIC50

q: Query pIC50 on GAPDH (Homo sapiens) for `C=C(C)[C@@H]1CC=C(COC(=O)C(=O)CBr)CC1`
a: > 4.52

---

Tested on: HCT116, LN229, T98G, U251, MCF7, T47D, MDA-MB-231, MDA-MB-468, BTM-12, ME16C cells
Experiment: 24-hour MTT assay in 10 cell lines with MCT-1 levels (FIGS. 16A-16C)
Assay type: cell-based
Conditions: Homo sapiens, all 10 cell lines, irrespective of MCT-1 expression; read-out: IC50 (concentration of drug that kills 50% of the cell population)
Text: The following established human cell lines were used: (A) HCT116 colon carcinoma; (B) LN229, T98G, and U251 glioblastoma; (C) MCF7, MDA-MB-231, MDA-MB-468, BTM-12, and T47D breast carcinoma; and ME16C normal mammary gland epithelium cells (immortalized with telomerase). […] The middle panels show MCT-1 protein levels for each cell line, as determined by Western blot with actin as the loading control. […]
reported.property: IC50

q: Please look up its IC50: C=C(C)[C@@H]1CC=C(COC(=O)C(=O)CBr)CC1 [NEO218]
a: 15 to 25 µM
